Target: Axl (Homo sapiens, UniProt P30530)
Construct: endogenous in cells; host or cells: HeLa cells
Sequence (P30530 26-894): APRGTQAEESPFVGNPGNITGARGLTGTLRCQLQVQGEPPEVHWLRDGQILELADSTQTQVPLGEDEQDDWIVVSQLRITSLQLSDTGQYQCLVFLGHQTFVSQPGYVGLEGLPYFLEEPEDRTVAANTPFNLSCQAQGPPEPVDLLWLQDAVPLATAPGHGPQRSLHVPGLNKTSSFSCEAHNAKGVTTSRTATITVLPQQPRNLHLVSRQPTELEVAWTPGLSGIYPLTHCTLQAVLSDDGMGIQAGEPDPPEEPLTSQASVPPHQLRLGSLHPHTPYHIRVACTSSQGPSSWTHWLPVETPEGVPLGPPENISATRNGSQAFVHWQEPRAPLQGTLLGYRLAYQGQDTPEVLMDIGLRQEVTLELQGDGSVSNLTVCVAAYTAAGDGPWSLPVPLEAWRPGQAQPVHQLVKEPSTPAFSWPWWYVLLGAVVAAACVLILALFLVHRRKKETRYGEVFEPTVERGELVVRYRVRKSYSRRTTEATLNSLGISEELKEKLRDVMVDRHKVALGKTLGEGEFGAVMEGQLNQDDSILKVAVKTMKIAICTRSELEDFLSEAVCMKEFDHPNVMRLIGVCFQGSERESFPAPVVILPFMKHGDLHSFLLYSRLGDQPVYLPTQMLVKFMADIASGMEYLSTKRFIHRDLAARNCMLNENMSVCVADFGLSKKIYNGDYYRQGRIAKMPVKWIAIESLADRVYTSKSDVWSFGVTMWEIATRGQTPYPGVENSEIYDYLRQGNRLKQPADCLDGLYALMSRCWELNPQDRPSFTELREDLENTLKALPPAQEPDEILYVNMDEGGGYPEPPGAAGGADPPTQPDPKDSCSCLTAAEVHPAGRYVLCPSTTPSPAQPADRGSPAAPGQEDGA
Experiment: Phospho-Akt In-Cell Western Assay (inhibition of Axl activity after Axl-antibody cross-linking)
Type: cell-based
Conditions: Hela cells, phospho-Akt chemiluminescence normalized to relative cell number; compounds of formula (Ia), Table 1; read-out: IC50
Below is a list of entries, each paired with its recorded IC50 value.
observable: IC50

molecule="CCCN1CCC2CN(c3ccc(Nc4nc(N)n(-c5cc6c(nn5)-c5ccccc5CCC6)n4)cc3F)CCC21 (stereo not drawn) [Compound 84]" observable=IC50 measured_result="< 1000 nM"
molecule="CN1CCN(c2ccc(Nc3nc(N)n(-c4cc5c(nn4)-c4ccccc4CCC5)n3)cc2)CC1 [Compound 34]" observable=IC50 measured_result="< 1000 nM"
molecule="CN(CCOc1ccc(Nc2nc(N)n(-c3cc4c(nn3)-c3ccccc3CCC4)n2)cc1)C1CCCC1 [Compound 60]" observable=IC50 measured_result="< 1000 nM"
molecule="Nc1nc(Nc2ccc(N3CCC(N4CCCC4)CC3)cc2)nn1-c1cc2c(nn1)-c1ccccc1OCC2 [Compound 116]" observable=IC50 measured_result="1000 to 10000 nM"
molecule="Nc1nc(Nc2ccc(N3CCC(N4CCCC4)CC3)c(F)c2)nn1-c1cc2c(nn1)-c1ccccc1CCC2 [Compound 4]" observable=IC50 measured_result="< 1000 nM"
molecule="Nc1cccc(-c2ccc(Nc3nc(N)n(-c4cc5c(nn4)-c4ccccc4CCC5)n3)cn2)c1 [Compound 95]" observable=IC50 measured_result="> 20000 nM"
molecule="Nc1nc(Nc2ccc(CN3CCN(C4CCCC4)CC3)cc2)nn1-c1cc2c(nn1)-c1ccccc1CCC2 [Compound 104]" observable=IC50 measured_result="< 1000 nM"
molecule="CN1CCc2cc(-n3nc(Nc4ccc(OCCN5CCCC5)c(F)c4)nc3N)nnc2-c2ccccc21 [Compound 42]" observable=IC50 measured_result="< 1000 nM"
molecule="Nc1nc(Nc2ccc(N3CCC(N4CCCC4)CC3)c(F)c2)nn1-c1cc2c(nn1)-c1ccccc1OCC2 [Compound 117]" observable=IC50 measured_result="< 1000 nM"

Sourced from patent US7709482B2
